B1: mRNA-splicing (parent)
chain: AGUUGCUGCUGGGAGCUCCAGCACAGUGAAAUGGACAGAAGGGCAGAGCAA

Variants of: B1
Assay: exon inclusion enrichment index; higher = more inclusion; WT1 exon 5 minigene, HEK293
Binary classification by exon inclusion enrichment index, with 0.1 as an inclusive lower bound for fulfilled; all other cases are not fulfilled.

Examples with answers:
VARIANT NAME | ASSIGNED CATEGORY
C6A U7A C9A U10A G38U A39C | fulfilled
C6A U7G | not fulfilled
C6A U7C C9A U10C A29C A30G | fulfilled
U4A G5A G8U C9U | fulfilled
G5A C6U U7A G8U C9A A23U C24G | fulfilled
G5C C6U G8C C9U U10C C22A A23G | fulfilled

Does the reported exon inclusion enrichment index for C6A U7C C9A U10C C16U fall at or above the 0.1 mark?
fulfilled

Form field: exon inclusion enrichment index at least 0.1? Entry: G5A C6G U7G C9A C19U
not fulfilled

I'd appreciate it if you could say whether G5C C6G U7C U10C U27A G28A has exon inclusion enrichment index at least equal to 0.1.
fulfilled

Entry G5A C6G U7G C9A U17A C18U : is its exon inclusion enrichment index no less than 0.1?
not fulfilled

Decide: exon inclusion enrichment index of G5C C6G U7C U10C A40U G41C >= 0.1?
fulfilled
